measured metric: melting point (°C)
Number in °C, nothing else.

Example molecules with recorded melting point:
| chem smiles | obs value |
| --- | --- |
| O=C(Nc1cccc(S(=O)(=O)NCc2cccnc2)c1)c1cnn2c(C(F)F)cc(-c3ccc(C(F)(F)F)cc3)nc12 | 256 |
| O=C(Nc1cccc(S(=O)(=O)NCC(F)(F)F)c1)c1cnn2c(C(F)F)cc(-c3ccc(C(F)(F)F)cc3)nc12 | 257 |
| O=C(Nc1cccc(S(=O)(=O)N2CCOCC2)c1)c1cnn2c(C(F)(F)F)cc(-c3ccc(C(F)(F)F)cc3)nc12 | 233 |

Measured melting point, O=C(Nc1cccc(S(=O)(=O)NCc2ccncc2)c1)c1cnn2c(C(F)F)cc(-c3ccc(C(F)(F)F)cc3)nc12 : 221

Measured melting point, NS(=O)(=O)c1cccc(NC(=O)c2cnn3c(C(F)F)cc(-c4ccc(C(F)(F)F)c(OCC(F)(F)F)c4)nc23)c1 : 241

Measured melting point, O=C(Nc1cccc(S(=O)(=O)CCO)c1)c1cnn2c(C(F)F)cc(-c3ccc(C(F)(F)F)cc3)nc12 : 205

Measured melting point, O=C(Nc1cccc(S(=O)(=O)NCCO)c1)c1cnn2c(C(F)F)cc(-c3ccc(C(F)(F)F)cc3)nc12 : 231

###

measured metric: melting point (°C)
Number in °C, nothing else.

Example compounds with recorded melting point:
| compound | melting point [°C] |
| --- | --- |
| O=C(Nc1cccc(S(=O)(=O)NCC2CC2)c1)c1cnn2c(C(F)F)cc(-c3ccc(C(F)(F)F)cc3)nc12 [Example 73] | 238 |
| O=C(Nc1cccc(S(=O)(=O)Nc2ccccc2)c1)c1cnn2c(C(F)F)cc(-c3ccc(C(F)(F)F)cc3)nc12 [Example 74] | 228 |

# evaluate next
Measured melting point, CN(C)CCNS(=O)(=O)c1cccc(NC(=O)c2cnn3c(C(F)F)cc(-c4ccc(C(F)(F)F)cc4)nc23)c1 [Example 144] : 184
